- subject_of_test: SARM1 (Homo sapiens)
- Construct: the inventor produces full-length SARM1 for NADase activity assays and for screening; His (C); digitonin lysate supernatant, not purified further)
- Sequence (Q6SZW1 28-724): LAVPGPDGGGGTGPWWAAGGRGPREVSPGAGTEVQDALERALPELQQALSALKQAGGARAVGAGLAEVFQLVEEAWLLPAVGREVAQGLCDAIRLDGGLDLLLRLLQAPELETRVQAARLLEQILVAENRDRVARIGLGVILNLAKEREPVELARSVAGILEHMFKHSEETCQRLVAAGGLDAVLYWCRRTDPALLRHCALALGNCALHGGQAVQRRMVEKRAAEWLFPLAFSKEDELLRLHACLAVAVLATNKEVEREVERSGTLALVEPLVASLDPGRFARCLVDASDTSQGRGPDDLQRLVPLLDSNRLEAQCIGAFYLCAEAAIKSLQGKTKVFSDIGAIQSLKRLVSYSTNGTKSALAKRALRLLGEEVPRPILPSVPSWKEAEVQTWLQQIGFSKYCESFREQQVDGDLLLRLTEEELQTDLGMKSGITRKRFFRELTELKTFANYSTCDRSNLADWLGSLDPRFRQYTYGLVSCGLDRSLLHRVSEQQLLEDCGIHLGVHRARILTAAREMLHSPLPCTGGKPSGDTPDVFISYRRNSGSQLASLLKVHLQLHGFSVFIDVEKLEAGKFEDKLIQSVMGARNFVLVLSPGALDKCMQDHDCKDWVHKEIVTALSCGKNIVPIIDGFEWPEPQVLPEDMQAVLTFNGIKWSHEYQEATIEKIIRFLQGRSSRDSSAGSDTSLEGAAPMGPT
- measurement_protocol: In vitro biochemical assay for inhibiting SARM1 enzymatic activity (PC6 fluorescence, NAD substrate, NMN activator)
- measurement_setup: 0.05 µg/mL SARM1, 50 µM NAD, 50 µM PC6, 50 µM NMN, 10 min pre-incubation, 30 min at room temperature
measurement_type: IC50

                                   compound               val
0  Cc1cc(N2CCC(Cc3ccc(Cl)cc3)C2=O)ccc1-c1ccncc1 (stereo not drawn)  1000 to 10000 nM
1  Cc1cnccc1-c1ccc(N2CCC(Cc3ccc(Cl)cc3)C2=O)cc1 (stereo not drawn)         < 1000 nM

Quick one: give me IC50 for each item below, same order please.
1. O=C1C(Cc2cc(F)c(F)c(F)c2)CCN1c1ccc(-c2ccncc2)cc1 (stereo not drawn)
2. S=C1C(Cc2ccc(Cl)cc2)CCN1c1ccc(-c2ccncc2)nn1 (stereo not drawn)
3. O=C1N(Cc2ccc(Cl)cc2)CCN1c1ccc(-c2ccncc2)cc1
4. O=C1C(Cc2ccc(Br)cc2)CCN1c1ccc(-c2ccncc2)cc1 (stereo not drawn)

1: < 1000 nM; 2: < 1000 nM; 3: < 1000 nM; 4: 10000 to 30000 nM

----------
- subject_of_test: SARM1 (Homo sapiens, UniProt Q6SZW1)
- Construct: the inventor produces full-length SARM1 for NADase activity assays and for screening; His (C); digitonin lysate supernatant, not purified further)
- Sequence (Q6SZW1 28-724): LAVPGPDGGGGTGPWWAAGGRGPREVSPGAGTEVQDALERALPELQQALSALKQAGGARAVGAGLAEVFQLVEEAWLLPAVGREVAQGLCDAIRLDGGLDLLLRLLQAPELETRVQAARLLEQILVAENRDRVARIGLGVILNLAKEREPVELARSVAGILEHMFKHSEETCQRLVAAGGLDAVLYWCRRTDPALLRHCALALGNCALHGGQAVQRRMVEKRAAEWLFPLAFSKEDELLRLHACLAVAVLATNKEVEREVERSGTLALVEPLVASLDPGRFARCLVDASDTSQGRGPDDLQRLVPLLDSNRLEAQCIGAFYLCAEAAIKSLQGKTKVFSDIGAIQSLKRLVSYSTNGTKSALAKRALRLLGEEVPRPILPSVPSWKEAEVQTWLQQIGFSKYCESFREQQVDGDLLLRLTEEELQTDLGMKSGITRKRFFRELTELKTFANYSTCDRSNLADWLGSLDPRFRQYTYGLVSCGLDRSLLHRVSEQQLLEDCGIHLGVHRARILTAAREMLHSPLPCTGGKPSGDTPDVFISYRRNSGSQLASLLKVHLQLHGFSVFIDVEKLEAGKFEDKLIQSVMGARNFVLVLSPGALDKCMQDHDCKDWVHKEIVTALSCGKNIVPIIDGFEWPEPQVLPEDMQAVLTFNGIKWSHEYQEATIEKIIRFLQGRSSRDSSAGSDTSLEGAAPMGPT
- measurement_protocol: In vitro biochemical assay for inhibiting SARM1 enzymatic activity (PC6 fluorescence, NAD substrate, NMN activator)
- measurement_setup: 0.05 µg/mL SARM1, 50 µM NAD, 50 µM PC6, 50 µM NMN, 10 min pre-incubation, 30 min at room temperature
measurement_type: IC50

// known answers, use as guide
>>> df
                                   compound               val
0  O=C1C(Cc2ccc(F)c(F)c2)CCN1c1ccc(-c2ccncc2)cc1 (racemic) [Compound 30]         < 1000 nM
1  O=C1C(Cc2ccc(Cl)cc2)CCCN1c1ccc(-c2ccncc2)nn1 (stereo not drawn) [Compound 53]         < 1000 nM
2  O=C1C(Cc2ccc(F)c(F)c2)=CCN1c1ccc(-c2ccncc2)cc1 [Compound 85]  1000 to 10000 nM
3  C=C(Cc1ccc(Cl)cc1)C(=O)Nc1ccc(-c2ccncc2)cc1 [Compound 5]         < 1000 nM
4  O=C1C(Cc2ccc(Cl)cc2)CCN1c1ccc(-c2ccncn2)cc1 (stereo not drawn) [Compound 9]  1000 to 10000 nM

Quick one: give me IC50 for each item below, same order please.
1. [2H]C1(Cc2ccc(F)c(F)c2)CCN(c2ccc(-c3ccncc3)cc2)C1=O (stereo not drawn) [Compound 83]
2. N#Cc1cc(-c2ccncc2)ccc1N1CCC(Cc2ccc(Cl)cc2)C1=O (stereo not drawn) [Compound 21]
3. Cc1ccc(CC2CCN(c3ccc(-c4ccncc4)nn3)C2=O)cc1 (stereo not drawn) [Compound 63]

1: < 1000 nM; 2: 10000 to 30000 nM; 3: < 1000 nM

Quick one: give me IC50 for each item below, same order please.
1. O=C1C(Cc2ccccc2)CCN1c1ccc(-c2ccncc2)nn1 (stereo not drawn) [Compound 65]
2. O=C1C(Cc2ccc(F)cc2)CCN1c1ccc(-c2ccncc2)nn1 (stereo not drawn) [Compound 55]

1. < 1000 nM
2. < 1000 nM
